Listing: pIC50 of selected compounds
Biological target: HCV polymerase (Hepatitis C virus genotype 1b)
Construct: 2.5 pmoles (0.15 μg) HCV polymerase protein in a final volume of 75 μL
Test: HCV polymerase primer/template-directed transcription assay (32P-GTP incorporation, filter binding)
Assay type: biochemical
Conditions: recombinant HCV polymerase; 30 minutes at 30° C.; concentration giving 50% inhibition of polymerase-directed transcription; read-out: IC50
pIC50: −log10 of the molar value.

Compound | pIC50
Cc1nc[nH]c1CC1C(=O)CC(CCc2ccc(C(C)(C)C#N)c(F)c2)(C2CCCC2)OC1=O (centres unmarked) [A(107)] | 6.44
CC1(C)COc2ccc(CCC3(C4CCCC4)CC(=O)CC(=O)O3)cc21 (centres unmarked) [A(76)] | 5.24
COc1cc(OC)c(CCC2(C3CCCC3)CC(O)=C(Sc3nnc(C)n3CCN3CCOCC3)C(=O)O2)cc1Cl (centres unmarked) [C(86)] | 7.32
CC(C)Oc1ccc(CCC2(C3CCCC3)CC(O)=C(Sc3nc4cc(Cl)ccc4n3C(C)C)C(=O)O2)cc1F (centres unmarked) [C(02)] | 7.85
CC(C)c1cc(CCC2(C3CCCC3)CC(=O)CC(=O)O2)ccc1O (centres unmarked) [A(93)] | 6.15
COc1cc(OC)c(CCC2(C3CCCC3)CC(O)=C(Sc3nnnn3C)C(=O)O2)cc1Cl (centres unmarked) [C(72)] | 7.11
Cc1cc(C)n2nc(CC3=C(O)CC(CCc4ccc(C5(C#N)CCC5)c(F)c4)(C4CCCC4)OC3=O)nc2n1 (centres unmarked) [A(236)] | 8.52
Cc1nc(CC2=C(O)CC(CCc3ccc(C(F)F)c(F)c3)(C3CCCC3)OC2=O)n(C)n1 (centres unmarked) [B(69)] | 6.10
CCC(C#N)(CC)c1ccc(CCC2(C3CCCC3)CC(O)=C(Cc3nc4ncc(Cl)cn4n3)C(=O)O2)cc1F (single isomer, unassigned; (-)) [A(267)] | 8.40
Cc1cc(C)n2nc(SC3=C(O)CC(CCc4ccc(OC(C)C)c(F)c4)(C4CCCC4)OC3=O)nc2n1 (centres unmarked) [C(07)] | 7.72
O=C1CC(=O)OC(CCc2ccc3ccccc3c2)(C2CCCC2)C1 (centres unmarked) [A(47)] | 5.15
CCC(CC)Oc1ccc(CCC2(C3CCCC3)CC(=O)CC(=O)O2)cc1Cl (centres unmarked) [A(83)] | 5.27
Cc1nc(-c2ccc(CCC3(C4CCCC4)CC(=O)CC(=O)O3)cc2F)no1 (centres unmarked) [A(15)] | 5.36
CCc1nc(CC2=C(O)CC(CCc3ccc(O)c(CC)c3)(C3CCCC3)OC2=O)c(C)[nH]1 (centres unmarked) [B(111)] | 6.49
Cc1cnc2nc(CC3=C(O)CC(CCc4ccc(C(C)(C)C#N)c(Cl)c4)(C4CCCC4)OC3=O)nn2c1 (racemic) [A(203)] | 7.70
CN(c1ccc(CCC2(C3CCCC3)CC(=O)CC(=O)O2)cc1F)S(C)(=O)=O (centres unmarked) [A(132)] | 4.89
COc1ccc(CCC2(C3CCCC3)CC(O)=C(Sc3nccn3C)C(=O)O2)cc1Cl (centres unmarked) [C(101)] | 6.85

====

The compounds listed here are annotated with their IC50.
Molecular target: HCV polymerase (Hepatitis C virus genotype 1b, UniProt P26663)
Construct: 2.5 pmoles (0.15 μg) HCV polymerase protein in a final volume of 75 μL
Sequence (P26663 2420-3010): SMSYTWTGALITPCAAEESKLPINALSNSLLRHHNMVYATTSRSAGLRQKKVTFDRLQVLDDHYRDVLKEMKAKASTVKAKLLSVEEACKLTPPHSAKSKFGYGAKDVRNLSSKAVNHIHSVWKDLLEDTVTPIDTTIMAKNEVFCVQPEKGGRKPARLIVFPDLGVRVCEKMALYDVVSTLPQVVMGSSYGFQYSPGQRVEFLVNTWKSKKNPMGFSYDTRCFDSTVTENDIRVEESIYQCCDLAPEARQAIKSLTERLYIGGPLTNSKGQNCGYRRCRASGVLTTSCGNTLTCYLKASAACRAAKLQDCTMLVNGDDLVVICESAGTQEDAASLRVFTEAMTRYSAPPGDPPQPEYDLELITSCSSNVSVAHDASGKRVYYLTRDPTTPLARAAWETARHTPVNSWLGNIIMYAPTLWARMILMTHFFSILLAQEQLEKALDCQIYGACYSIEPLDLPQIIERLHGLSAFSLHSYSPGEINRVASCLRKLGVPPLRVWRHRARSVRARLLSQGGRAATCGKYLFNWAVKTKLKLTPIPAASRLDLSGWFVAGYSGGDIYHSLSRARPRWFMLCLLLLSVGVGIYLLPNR
Assay: HCV polymerase primer/template-directed transcription assay (32P-GTP incorporation, filter binding)
Format: biochemical
Details: recombinant HCV polymerase; 30 minutes at 30° C.; concentration giving 50% inhibition of polymerase-directed transcription; read-out: IC50

Compound | IC50 [µM]
CC(C)(C)C1(c2ccc(CCC3(C4CCCC4)CC(=O)CC(=O)O3)cc2)OCCO1 (stereo not shown) [A(34)] | 10
O=C1CC(=O)OC(CCc2ccc3c(c2)OC(F)(F)C(F)(F)O3)(C2CCCC2)C1 (stereo not shown) [A(59)] | 3.2
O=C1OC(CCc2ccc(OCc3ccccc3)cc2)(C2CCCC2)CC(O)=C1Cc1cc(=O)[nH]c(C2CC2)n1 (stereo not shown) [B(67)] | 3.2
O=C1CC(=O)OC(CCc2ccc(OC(F)F)cc2)(C2CCCC2)C1 (stereo not shown) [A(58)] | 6.5

====

Target: HCV polymerase (Hepatitis C virus genotype 1b, UniProt P26663)
Construct: 2.5 pmoles (0.15 μg) HCV polymerase protein in a final volume of 75 μL
Test: HCV polymerase primer/template-directed transcription assay (32P-GTP incorporation, filter binding)
Type: biochemical
Settings: recombinant HCV polymerase; 30 minutes at 30° C.; concentration giving 50% inhibition of polymerase-directed transcription; read-out: IC50
pIC50: −log10 of the molar value.
Property: pIC50; scope: individual molecules

Molecule | pIC50
Cc1cc(C)n2nc(CC3=C(O)CC(CCc4ccc(C(C)(C)O)c(F)c4)(C4CCCC4)OC3=O)nc2n1 (single isomer, unassigned; enantiomer b) [A(219)] | 7.06
COc1ccc(CCC2(C3CCCC3)CC(=O)C(Cc3nc4ccccc4n3C)C(=O)O2)cc1Cl (centres unmarked) | 6.96
COc1ccc(CCC2(C3CCCC3)CC(O)=C(Sc3nc4cc(C#N)ccc4[nH]3)C(=O)O2)cc1Cl (centres unmarked) | 7.52
COc1cccc(-c2nnc(SC3=C(O)CC(CCc4cc(Cl)c(OC)cc4OC)(C4CCCC4)OC3=O)n2C)c1 (centres unmarked) | 7.20
O=C1CC(=O)OC(CCC2CCCCC2)(C2CCCC2)C1 (centres unmarked) | 4.17
Cc1nc(C(C)(C)c2ccc(CCC3(C4CCCC4)CC(=O)CC(=O)O3)cc2)no1 (centres unmarked) | 4.41
CCOc1ccc(CCC2(C3CCCC3)CC(O)=C(Cc3nc4nc(C)cc(C)n4n3)C(=O)O2)cc1Cl (centres unmarked) | 8.40
COc1ccc(CCC2(C3CCCC3)CC(O)=C(Sc3cccc(Cl)c3Cl)C(=O)O2)cc1Cl (centres unmarked) | 6.68
C[C@@H](O)c1ccc(CCC2(C3CCCC3)CC(=O)CC(=O)O2)cc1F (some centres unmarked) | 5.48
CCc1noc(CC2=C(O)CC(CCc3cc(Cl)c(OC)cc3OC)(C3CCCC3)OC2=O)n1 (centres unmarked) | 6.70
Cc1cc(C)n2nc(CC3=C(O)CC(CCc4ccc(O)c(C(C)(C)C)c4)(C4CCCC4)OC3=O)nc2n1 (centres unmarked) | 7.89
COc1cc(OC)c(CCC2(C3CCCC3)CC(O)=C(Sc3nnc(CN(C)C)n3C)C(=O)O2)cc1Cl (centres unmarked) | 7.40
CCc1cc(CCC2(C3CCCC3)CC(O)=C(Cc3nc4ncc(Cl)cn4n3)C(=O)O2)c(C)cc1O (centres unmarked) | 7.54
COc1cccc(CC2=C(O)CC(CCc3ccc(C(C)(C)C#N)c(F)c3)(C3CCCC3)OC2=O)c1 (centres unmarked) | 7.06
CCc1ccc(OC)c(CCC2(C3CCCC3)CC(O)=C(Cc3nc4nc(C)cc(C)n4n3)C(=O)O2)c1 (centres unmarked) | 8.22
COc1ccc(SCC2(C3CCCC3)CC(=O)CC(=O)O2)cc1 (centres unmarked) | 4.63
CCc1cc(CCC2(C3CCCC3)CC(=O)CC(=O)O2)ccc1OCCO (centres unmarked) | 6.31
COc1cc(OC)c(CCC2(C3CCCC3)CC(O)=C(Sc3nccnc3C)C(=O)O2)cc1Cl (centres unmarked) | 7.33
Cc1cc(C)n2nc(CC3=C(O)CC(CCc4ccc(C(C)C)c(Cl)c4)(C4CCCC4)OC3=O)nc2n1 (centres unmarked) | 7.28
COc1ccc(CCC2(C3CCCC3)CC(O)=C(Sc3nc4cc(Cl)ccc4n3C)C(=O)O2)cc1Cl (centres unmarked) | 8.70
N#CCC(=O)c1ccc(C#CC2(C3CCCC3)CC(=O)CC(=O)O2)cc1 (centres unmarked) | 4.66
CCc1cc(CCC2(C3CCCC3)CC(O)=C(Cc3nc4nc(C)cc(C)n4n3)C(=O)O2)c(OC)cc1O (single isomer, unassigned; (-)) [A(155)] | 8.52
Cc1cnc2nc(CC3=C(O)CC(CCc4ccc(O)c(CC(F)(F)F)c4)(C4CCCC4)OC3=O)nn2c1 (centres unmarked) | 8.40
Cc1cc(C)n2nc(CC3=C(O)CC(CCc4ccc(C5(C)OCCO5)c(Cl)c4)(C4CCCC4)OC3=O)nc2n1 (centres unmarked) | 8.15
COc1cc(OC)c(CCC2(C3CCCC3)CC(O)=C(Cc3cc(=O)n4c(C)csc4n3)C(=O)O2)cc1Cl (centres unmarked) | 8.22
CCNC(=O)C(C)(C)c1ccc(CCC2(C3CCCC3)CC(=O)CC(=O)O2)cc1 (centres unmarked) | 5.41
COc1ccc(CCC2(C3CCCC3)CC(O)=C(Sc3nnc(-c4ccc(O)cc4)[nH]3)C(=O)O2)cc1Cl (centres unmarked) | 7.30
COc1ccc(CCC2(C3CCCC3)CC(O)=C(Sc3nncn3C)C(=O)O2)cc1Cl (centres unmarked) | 7.42
Cc1cc(C)n2nc(CC3=C(O)CC(CCc4ccc(O)c(CO)c4)(C4CCCC4)OC3=O)nc2n1 (centres unmarked) | 7.01
O=C1CC(=O)OC(CCc2cc(F)cc(F)c2)(C2CCCC2)C1 (centres unmarked) | 4.51
Cc1cc(C)n2nc(CC3=C(O)CC(CCc4ccc(OCc5c(C)noc5C)cc4)(C4CCCC4)OC3=O)nc2n1 (centres unmarked) | 6.68
CC(=O)c1ccc(CCC2(C3CCCC3)CC(O)=C(Cc3nc4nc(C)cc(C)n4n3)C(=O)O2)cc1Cl (centres unmarked) | 7.05

Values from patent US7473790B2
